Reference source: patent US5399565A

Listed here: items and their measured inhibition at 10 µM.
Target: peripheral type CCK receptors in rat pancreas (Rattus norvegicus, UniProt P30551)
Construct: Pancreas was obtained from male Sprague-Dawley rats; from tissue; host or cells: pancreas membranes of male Sprague-Dawley rats
Sequence (P30551 1-444): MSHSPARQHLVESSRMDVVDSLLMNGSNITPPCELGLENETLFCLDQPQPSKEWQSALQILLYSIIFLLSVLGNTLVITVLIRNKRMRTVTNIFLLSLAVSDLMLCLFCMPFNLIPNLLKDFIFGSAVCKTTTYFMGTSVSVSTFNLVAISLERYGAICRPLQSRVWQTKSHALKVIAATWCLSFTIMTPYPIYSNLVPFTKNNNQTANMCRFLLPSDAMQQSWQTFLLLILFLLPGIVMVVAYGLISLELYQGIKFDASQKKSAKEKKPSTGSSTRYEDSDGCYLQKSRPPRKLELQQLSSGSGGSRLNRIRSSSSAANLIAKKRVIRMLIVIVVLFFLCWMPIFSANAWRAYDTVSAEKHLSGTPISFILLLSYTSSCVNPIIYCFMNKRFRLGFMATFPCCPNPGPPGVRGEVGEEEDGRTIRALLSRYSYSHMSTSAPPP
Assay: Binding to peripheral type CCK receptors in rat pancreas (3H-L-364,718)
Conditions: at 10 μM; read-out: Pancreas Percent Inhibition

Compound	Assayed system	inhibition at 10 µM
O=C1NN(C(=O)Nc2ccc3ccccc3c2)[C@@H](c2ccccc2)[C@@H]1c1ccccc1 (relative stereo)	peripheral type CCK receptors in rat pancreas (Rattus norvegicus, UniProt P30551)	94%
CC(=O)c1ccc(NC(=O)N2NC(=O)[C@@H](c3ccccc3)[C@@H]2c2ccccc2)cc1 (relative stereo)	peripheral type CCK receptors in rat pancreas (Rattus norvegicus, UniProt P30551)	23%
O=C1NN(C(=O)Nc2ccc(Br)cc2)C(c2ccccc2)C1c1cccc(Cl)c1 (stereo not shown)	peripheral type CCK receptors in rat pancreas (Rattus norvegicus, UniProt P30551)	59%
O=C1NN(C(=O)Nc2cc(C(F)(F)F)ccc2Cl)[C@H](c2ccccc2)[C@H]1c1ccccc1 (relative stereo)	peripheral type CCK receptors in rat pancreas (Rattus norvegicus, UniProt P30551)	45%
O=C1NN(C(=O)NCc2ccc(Cl)cc2)[C@@H](c2ccccc2)[C@@H]1c1ccccc1 (relative stereo)	peripheral type CCK receptors in rat pancreas (Rattus norvegicus, UniProt P30551)	78%
O=C1NN(C(=O)Nc2ccc([N+](=O)[O-])cc2)[C@@H](c2ccccc2)[C@@H]1c1ccccc1 (relative stereo)	peripheral type CCK receptors in rat pancreas (Rattus norvegicus, UniProt P30551)	45%
O=C1NN(C(=O)Nc2ccccc2C(F)(F)F)[C@H](c2ccccc2)[C@H]1c1ccccc1 (relative stereo)	peripheral type CCK receptors in rat pancreas (Rattus norvegicus, UniProt P30551)	17%
O=C1NN(C(=O)Nc2ccc3c(c2)CCC3)[C@H](c2ccccc2)[C@H]1c1ccccc1 (relative stereo)	peripheral type CCK receptors in rat pancreas (Rattus norvegicus, UniProt P30551)	40%
C[C@@H](NC(=O)N1NC(=O)C(c2ccccc2)C1c1ccccc1)c1ccccc1 (stereo partly shown)	peripheral type CCK receptors in rat pancreas (Rattus norvegicus, UniProt P30551)	11%
O=C1NN(C(=O)Nc2ccc(Cl)cc2Cl)[C@H](c2ccccc2)[C@H]1c1ccccc1 (relative stereo)	peripheral type CCK receptors in rat pancreas (Rattus norvegicus, UniProt P30551)	47%
O=C1NN(C(=O)Oc2ccc(Cl)cc2)[C@@H](c2ccccc2)[C@@H]1c1ccccc1 (relative stereo)	peripheral type CCK receptors in rat pancreas (Rattus norvegicus, UniProt P30551)	15%
O=C1NN(C(=O)Nc2ccncc2)[C@@H](c2ccccc2)[C@@H]1c1ccccc1 (relative stereo)	peripheral type CCK receptors in rat pancreas (Rattus norvegicus, UniProt P30551)	21%
O=C1NN(C(=O)Nc2ccc(Br)cc2)C(Cc2ccccc2)C1c1ccccc1 (stereo not shown)	peripheral type CCK receptors in rat pancreas (Rattus norvegicus, UniProt P30551)	22%
O=C1NN(C(=O)NCc2ccccc2Cl)[C@@H](c2ccccc2)[C@@H]1c1ccccc1 (relative stereo)	peripheral type CCK receptors in rat pancreas (Rattus norvegicus, UniProt P30551)	33%
O=C1NN(C(=O)NCCc2ccc(Cl)cc2)[C@@H](c2ccccc2)[C@@H]1c1ccccc1 (relative stereo)	peripheral type CCK receptors in rat pancreas (Rattus norvegicus, UniProt P30551)	61%
O=C1NN(c2nc3ccc(Cl)cc3s2)[C@@H](c2ccccc2)[C@@H]1c1ccccc1 (relative stereo)	peripheral type CCK receptors in rat pancreas (Rattus norvegicus, UniProt P30551)	33%
O=C1NN(C(=O)Nc2ccc(Br)cc2)C(c2ccccc2)C1c1cccc([N+](=O)[O-])c1 (stereo not shown)	peripheral type CCK receptors in rat pancreas (Rattus norvegicus, UniProt P30551)	42%
O=C1NN(C(=O)Nc2cccc(C(F)(F)F)c2)[C@@H](c2ccccc2)[C@@H]1c1ccccc1 (relative stereo)	peripheral type CCK receptors in rat pancreas (Rattus norvegicus, UniProt P30551)	52%
O=C1NN(C(=O)Nc2ccccc2)[C@@H](c2ccccc2)[C@@H]1c1ccccc1 (racemic)	peripheral type CCK receptors in rat pancreas (Rattus norvegicus, UniProt P30551)	10%
O=C1NN(C(=O)c2cc3ccccc3[nH]2)[C@@H](c2ccccc2)[C@@H]1c1ccccc1 (relative stereo)	peripheral type CCK receptors in rat pancreas (Rattus norvegicus, UniProt P30551)	60%
CN(C)c1ccc(NC(=O)N2NC(=O)[C@@H](c3ccccc3)[C@@H]2c2ccccc2)cc1 (relative stereo)	peripheral type CCK receptors in rat pancreas (Rattus norvegicus, UniProt P30551)	14%
O=C1NN(C(=O)Nc2ccc(C3CCCCC3)cc2)[C@@H](c2ccccc2)[C@@H]1c1ccccc1 (relative stereo)	peripheral type CCK receptors in rat pancreas (Rattus norvegicus, UniProt P30551)	71%
Cc1ccc(NC(=O)N2NC(=O)[C@@H](c3ccccc3)[C@@H]2c2ccccc2)cc1 (relative stereo)	peripheral type CCK receptors in rat pancreas (Rattus norvegicus, UniProt P30551)	14%
O=C1NN(C(=O)Nc2ccc(Br)cc2)C(c2ccccc2)C1c1cccc2ccccc12 (stereo not shown)	peripheral type CCK receptors in rat pancreas (Rattus norvegicus, UniProt P30551)	75%
O=C1NN(C(=S)Nc2cccc(C(F)(F)F)c2)[C@H](c2ccccc2)[C@H]1c1ccccc1 (relative stereo)	peripheral type CCK receptors in rat pancreas (Rattus norvegicus, UniProt P30551)	78%
COc1ccc(NC(=O)N2NC(=O)[C@H](c3ccccc3)[C@H]2c2ccccc2)cc1OC (relative stereo)	peripheral type CCK receptors in rat pancreas (Rattus norvegicus, UniProt P30551)	25%
O=C1NN(C(=O)Nc2cccc(Cl)c2Cl)[C@H](c2ccccc2)[C@H]1c1ccccc1 (relative stereo)	peripheral type CCK receptors in rat pancreas (Rattus norvegicus, UniProt P30551)	53%
O=C1NN(C(=S)Nc2ccc(C(F)(F)F)cc2)[C@H](c2ccccc2)[C@H]1c1ccccc1 (relative stereo)	peripheral type CCK receptors in rat pancreas (Rattus norvegicus, UniProt P30551)	37%
